Tested on: HeLa cells
Assay: MTT antiproliferative assay, HeLa
Format: cell-based
Details: read-out: Cytotoxicity IC50, 72 h
Measured endpoint: IC50
Write down the value, and be sure its unit follows.

The measured IC50 that N.N.[Cl][Pt][Cl] [Cisplatin] showed for HeLa cells is 8.35 µM

---

Test system: MCF-7 cells
Experiment: MTT antiproliferative assay, MCF-7
Format: cell-based, human
Conditions: read-out: Cytotoxicity IC50, MCF-7, 72 h
Measured endpoint: IC50 (µM)
# unit: µM | format: bare number

Record N.N.[Cl][Pt][Cl] [Cisplatin] . Reported IC50: 18.3
